inhibition listing for selected molecules.
# measured_target: Large T antigen (Simian virus 40)
# assay_info: SV40 large T antigen inhibitors, biochemical (AID 1903)
# condition_description: SV40 large T antigen ATPase/helicase inhibition assay; at 20 µM; hits give high values
Hit rate of the full screen: of about 310,000 compounds, about 1,200 (0.39%) were called active. These entries were drawn from the full list. Measured potencies and affinities stand elsewhere.
value_kind: inhibition (%)

* COc1ccccc1N1CCN(S(=O)(=O)c2cc(C(F)(F)F)cc(C(F)(F)F)c2)CC1 | 4.92
* O=C(O)C(Cc1ccccc1)N1C(=O)/C(=C/c2ccccc2)SC1=S (stereo not drawn) | 16
* COC(=O)c1cccc(-n2c(C)cc(C=O)c2C)c1C | 17.4
* CC(C)(C)/C(O)=C/c1nc2ccccc2oc1=O | 29.2
* CC(C)c1ccc2nc(N)sc2c1 | 8.35
* CC(/C=C1\SC(=S)N(C(C(=O)O)C(C)C)C1=O)=C\c1ccccc1 (stereo not drawn) | 15.2
* Cc1ccc(NC(=O)C2CCCN(c3nccc(C)n3)C2)c(C)c1 (stereo not drawn) | 4.92
* COc1ccc(C(=O)Nn2c(C)nc3ccccc3c2=O)cc1OC | -1.86
* CN(C)c1ccc(/C=N/N2C(=O)c3ccccc3C2=O)cc1 | 21.5
* Nc1nc2ccc(S(=O)(=O)c3ccc4nc(N)sc4c3)cc2s1 | 10.5
* O=C(CSc1nnc(-c2cccnc2)n1-c1ccccc1)Nc1ccc2c(c1)OCO2 | 18.3
* O=C(O)Cc1ccc(O)c(F)c1 | 11.8
* CCc1ccc(NC(=O)/C(C#N)=C\c2ccc(OC)c(C(=O)O)c2)cc1 | 1.43
* CCOC(=O)c1c(NC(C)=O)sc2c(O)c(Br)ccc12 | 12.8
* CCc1ccc(C(=O)OCC(=O)NCCNC(=O)COC(=O)c2ccc(CC)cc2)cc1 | 4.49
* Cc1cc(N)ccc1-n1c(C)ccc1C | 15.8
* O=C1NN(c2ccc(F)cc2)C(=O)/C1=C\c1cnn(-c2ccccc2)c1 | 2.23
* CCN(CC)C(=O)COc1ccc2c(-c3ccc(OC)cc3)cc(=O)oc2c1 | 11.6
* CC(=C\c1ccccc1)/C=C1/SC(=S)N(C(C(=O)O)C(C)C)C1=O (stereo not drawn) | 18.4
* CCCCc1oc2c(c(=O)c1C)C(=O)CC(c1ccccc1)C2 (stereo not drawn) | 4.52
* Fc1ccc2nc(N3CCOCC3)sc2c1 | -1.3
* CCCCNC(=O)C1CCCN1C(=O)Nc1ccccc1 (stereo not drawn) | 4.68
* O=C(O)CC(C(=O)O)N1C(=O)/C(=C/C=C/c2ccco2)SC1=S (stereo not drawn) | 53.1
* CCN(CC)c1ccc(C(=O)N/N=C/c2ccc(OC)cc2OC)cc1 | 0.86
* Cc1ccc(/C(O)=C/c2nc3cc(C)ccc3oc2=O)cc1 | 14.5
* COc1ccc(/C=C(\C#N)C(=O)Nc2cccc3ncccc23)cc1OC | 6.66
* O=C(O)c1ccc(-c2ccc(OS(=O)(=O)c3ccccc3F)cc2)cc1 | -2.26
* O=C(O)COCC(=O)Nc1ccc(-n2cnnn2)cc1 | 3.06
* Cc1c(Nc2cc(N3CCCCCC3)c3nonc3c2[N+](=O)[O-])c(=O)n(-c2ccccc2)n1C | 3.53
* CCc1ccc(C2=NNC(=Nc3cccc(S(=O)(=O)N(C)C)c3)SC2)cc1 | 4.35
* N#C/C(=C/c1ccc(N2CCCCC2)o1)C(=O)Nc1ccc(Cl)cc1 | 22.3
* CCN(CC)c1ccc(C=O)c(OC)c1 | 11.8
* Cc1[nH]c2ccccc2c1C(Nc1nccs1)c1ccncc1 (stereo not drawn) | 0.2
* Cc1ccc(S(=O)(=O)NCC(=O)N(CC(=O)NC2CCCC2)c2ccc3c(c2)OCCO3)cc1 | 6.71
* C[C@@H]1O[C@@H](OC[C@H]2O[C@@H](Oc3c(-c4ccc(O)c(O)c4)oc4cc(O)cc(O)c4c3=O)[C@H](O)[C@@H](O)[C@@H]2O)[C@H](O)[C@H](O)[C@H]1O | 5.24
* COc1ccc(/C=C(\C#N)C(=O)NCc2ccccc2)cc1O | 8.17
* O=c1c(O[C@@H]2O[C@H](CO)[C@@H](O)[C@H](O)[C@H]2O)c(-c2ccc(O)c(O)c2)oc2cc(O)cc(O)c12 | 2.85
* COc1ccc(/C=C/CN2CCN(Cc3ccc(F)cc3)C(CCO)C2)cc1 (stereo not drawn) | 10.1
* Cc1ccc2nccc(C(=O)N3CCCC(Nc4ccc(F)cc4)C3)c2c1 (stereo not drawn) | 14
* O=C(CCC(=O)N1CCN(Cc2ccccc2)CC1)Nc1nnc(C2CCCCC2)s1 | 13.1
* c1ccc2sc(N3CCOCC3)nc2c1 | 20.2
* CC1OC(OC2C(Oc3c(-c4ccc(O)cc4)oc4cc(O)cc(O)c4c3=O)OC(COC3O[C@@H](C)[C@H](O)[C@@H](O)C3O)C(O)C2O)C(O)C(O)C1O (stereo partly drawn) | 3.2
* O=c1c(O[C@@H]2O[C@H](CO)[C@H](O)[C@H](O)[C@H]2O)c(-c2ccc(O)c(O)c2)oc2cc(O)cc(O)c12 | -2.68
